System: CSNK1G1;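 note: KINOMEscan kinase panel screen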
EXPERIMENTAL SETUP: concentration: 1 μM, replicates: in singlicate; n = 1
// classify: if (%Inh < 7%) Satisfied else Not satisfied

• Cl.Cl.NCC(NC(=O)c1cc(-c2cccnc2)c(-c2ccnc3[nH]ccc23)s1)c1ccccc1 (centres unmarked) [GSK1323434] = Not satisfied

Does the reported %Inh of Cc1ccc(Nc2ccnc(Nc3ccc(C)c(F)c3)n2)cc1O.Cl [GW582868] stay below 7%?
Satisfied

Another: Cc1cc(-c2ccnc(Nc3cccc(C#N)c3)n2)cc(C)c1O [GSK1440913]
Not satisfied

Another: `CN(c1ccc(F)c(NC(=O)c2cccc(OC(C)(C)C#N)c2Cl)c1)c1ccc2nc(NC(=O)C3CC3)sc2n1`
Satisfied

Another: `CS(=O)(=O)c1cccc(CNc2nc(Nc3ccc4c(c3)CCC(=O)N4)ncc2C(F)(F)F)c1`
Satisfied

Another: Cn1cc(-c2ccc3c(c2)CCN3C(=O)Cc2cc(F)cc(C(F)(F)F)c2)c2c(N)ncnc21 [GSK2635225]
Not satisfied

Another: `CCNC(=O)/C=C/c1n[nH]c2cc(Sc3ccccc3C(=O)NC)ccc12`
Not satisfied
